Condition info: in 1,4-dioxane, 308.15 K
Experimental readout: solubility (mole fraction)

>>> df
                         substance_smiles  experimental_result
0  CCCc1ncc(C[n+]2ccccc2C)c(N)n1.Cl.[Cl-]             0.000115

---

Condition info: in isobutanol, 293.15 K
Experimental readout: solubility (mole fraction)

                         substance_smiles        experimental_readout  experimental_result
0  CCCc1ncc(C[n+]2ccccc2C)c(N)n1.Cl.[Cl-]  solubility (mole fraction)             2.71e-05

---

Condition info: in n-propanol, 313.15 K
Experimental readout: solubility (mole fraction)

>>> print(df.to_string())
                         substance_smiles  experimental_result
0  CCCc1ncc(C[n+]2ccccc2C)c(N)n1.Cl.[Cl-]             0.000142

Origin of measurements: BigSolDB 2.1
